Reported pKa values follow for various compounds
- Test Name: physchem
- Description: Dissociation constant (pKa)
Number only, no unit.

Example entries and their recorded answers appear below.
>  <Smiles Code>
COc1noc2c1CCNC2

>  <pKa>
7.1

$$$$
>  <Smiles Code>
COC(=O)N1CCc2c(O)noc2C1

>  <pKa>
5.3

$$$$
>  <Smiles Code>
Oc1noc2c1CCNCC2

>  <pKa>
4.8

$$$$
>  <Smiles Code>
COC(=O)N1CCc2snc(O)c2C1

>  <pKa>
7.4

$$$$
>  <Smiles Code>
Oc1nsc2c1CNCC2

>  <pKa>
6.1

$$$$
>  <Smiles Code>
COc1noc2c1CNCC2

>  <pKa>
7.7

$$$$
>  <Smiles Code>
COC(=O)N1CCc2c(O)nsc2C1

>  <pKa>
7.3

$$$$
>  <Smiles Code>
COC(=O)N1CCc2snc(O)c2CC1

>  <pKa>
7.6

$$$$

Suppose we examine the compound O=C(O)N1CCc2onc(O)c2CC1 ; what pKa value has been reported?
5.6

Suppose we examine the compound Oc1nsc2c1CCNC2 ; what pKa value has been reported?
6.1

====

Entries with their measured pIC50, system GABA-A receptor; anion channel:
On this scale, pIC50 is minus log10 of a concentration expressed in M (mol/L).

Example entries and their recorded answers appear below.
>  <Smiles Code>
Oc1noc2c1CCNCC2

>  <Number>
4.82

$$$$
>  <Smiles Code>
Oc1nsc2c1CCNC2

>  <Number>
4.38

$$$$

Lab note: next molecule to report on.
Suppose we examine the molecule Oc1nsc2c1CCNCC2 ; what pIC50 value has been reported?
4.51

====

Reported IC50 values follow for various compounds
- Experimental Target: GABA transporter (Rattus norvegicus, UniProt P31647+P23978+P31646+P48056)
- Format: functional, subcellular, Brain
- Description: In vitro effect on GABA uptake in a crude preparation of synaptosomes from rat brain.

>  <Smiles Code>
Oc1noc2c1CCNCC2

>  <Experimental Target>
GABA transporter (Rattus norvegicus, UniProt P31647+P23978+P31646+P48056)

>  <IC50>
> 500 µM

$$$$
>  <Smiles Code>
Oc1nsc2c1CNCC2

>  <Experimental Target>
GABA transporter (Rattus norvegicus, UniProt P31647+P23978+P31646+P48056)

>  <IC50>
230 µM

$$$$
>  <Smiles Code>
Oc1nsc2c1CCNC2

>  <Experimental Target>
GABA transporter (Rattus norvegicus, UniProt P31647+P23978+P31646+P48056)

>  <IC50>
220 µM

$$$$

Suppose we examine the compound Oc1nsc2c1CCNCC2 ; what IC50 value has been reported?
400 µM
